B1: TOR1AIP2 (parent)
chain: YKYCDHENAAFKDVALVLTVLLEE

- Variants of: B1
- Assay Overview: protein stability index of a GFP-peptide fusion (GPS, HEK-293T) (PSI 1-6); higher = more stable;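 also: lentivirally expressed fusions sorted by FACS into six bins by GFP to DsRed ratio, PSI derived from sequencing read proportions per bin multiplied by bin number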
- Experimental Context: c terminus: a fixed tail appended
Readout Label: protein stability index
I'd appreciate a reply containing only the number, no unit.

| Residue Change | Assay Result |
| --- | --- |
| Y1C | 2.66 |

Note protein stability index for the variant shown: V20K
2.03

Note protein stability index for the variant shown: V14H
1.4
